Origin of values: paper PMC12951568

So I've got a bunch of compounds here, and I need their ε, extinction coefficient values.
assay: Absorption and fluorescence emission spectra in DMF; format: physicochemical; conditions: in DMF

Report ε, extinction coefficient, nothing else, for this compound: NCCc1ccc(Oc2cccc3c2C2=NC3=Nc3c4ccccc4c4[n]3[Zn][n]3c(c5ccccc5c3=N2)=NC2=NC(=N4)c3ccccc32)cc1 [C15Zn]
136 590 M^–1cm^–1

Item O=C([O-])c1cc(C(=O)[O-])cc(-c2cc3c(cc2-c2cc(C(=O)[O-])cc(C(=O)[O-])c2)C2=Nc4c5ccccc5c5[n]4[Zn][n]4c(c6ccccc6c4=NC3=N2)=NC2=NC(=N5)c3ccccc32)c1.[Na+].[Na+].[Na+].[Na+] [A2Zn] : provide ε, extinction coefficient
152 090 M^–1cm^–1

Quickly give me recorded ε, extinction coefficient for Cc1cc(OCc2cn(CCO[C@@H]3O[C@H](CO)[C@@H](O)[C@H](O)[C@H]3O)nn2)c(Oc2cc3c(cc2Oc2c(OCc4cn(CCO[C@@H]5O[C@H](CO)[C@@H](O)[C@H](O)[C@H]5O)nn4)cc(C)cc2OCc2cn(CCO[C@@H]4O[C@H](CO)[C@@H](O)[C@H](O)[C@H]4O)nn2)C2=Nc4c5ccccc5c5[n]4[Zn][n]4c(c6ccccc6c4=NC3=N2)=NC2=NC(=N5)c3ccccc32)c(OCc2cn(CCO[C@@H]3O[C@H](CO)[C@@H](O)[C@H](O)[C@H]3O)nn2)c1 [N4Zn]
293 750 M^–1cm^–1

Give ε, extinction coefficient for O=S(=O)([O-])c1ccc(Oc2cccc3c2C2=Cc4c5cccc(Oc6ccc(S(=O)(=O)[O-])c7cccnc67)c5c5[n]4[Zn][n]4c(c6cccc(Oc7ccc(S(=O)(=O)[O-])c8cccnc78)c6c4=CC3=N2)=CC2=NC(=C5)c3cccc(Oc4ccc(S(=O)(=O)[O-])c5cccnc45)c32)c2ncccc12.[Na+].[Na+].[Na+].[Na+] [A8Zn]
197 610 M^–1cm^–1

----------
experiment: Absorption and fluorescence emission spectra in DMF; type: physicochemical; details: in DMF
assay.readout: λF, fluorescence emission maximum (nm)
Form entry: value (nm) — number only.

State its λF, fluorescence emission maximum: `CSc1cc2c(cc1SC)C1=Nc3c4cc(SC)c(SC)cc4c4[n]3[Zn][n]3c(c5cc(SC)c(SC)cc5c3=NC2=N1)=NC1=NC(=N4)c2cc(Oc3c(Cn4cc[n+](C)c4)cc(C)cc3Cn3cc[n+](C)c3)c(Oc3c(Cn4cc[n+](C)c4)cc(C)cc3Cn3cc[n+](C)c3)cc21.[I-].[I-].[I-].[I-]`
709

----------
experiment: Log P, partition between n-octanol and PBS; type: physicochemical; conditions: partition coefficient between 1-octanol and PBS
assay.readout: Log P

Cc1cc(OCc2cn(CCO[C@@H]3O[C@H](CO)[C@@H](O)[C@H](O)[C@H]3O)nn2)c(Oc2cc3c(cc2Oc2c(OCc4cn(CCO[C@@H]5O[C@H](CO)[C@@H](O)[C@H](O)[C@H]5O)nn4)cc(C)cc2OCc2cn(CCO[C@@H]4O[C@H](CO)[C@@H](O)[C@H](O)[C@H]4O)nn2)C2=Nc4c5ccccc5c5[n]4[Zn][n]4c(c6ccccc6c4=NC3=N2)=NC2=NC(=N5)c3ccccc32)c(OCc2cn(CCO[C@@H]3O[C@H](CO)[C@@H](O)[C@H](O)[C@H]3O)nn2)c1 [N4Zn] ... –0.65
C[n+]1cccc(Oc2ccc3c(c2)C2=NC3=Nc3c4cc(Oc5ccc[n+](C)c5)ccc4c4[n]3[Zn][n]3c(c5ccc(Oc6ccc[n+](C)c6)cc5c3=NC3=NC(=N4)c4cc(Oc5ccc[n+](C)c5)ccc43)=N2)c1.[I-].[I-].[I-].[I-] [C5Zn-I] ... –2.19
